assay: Pharmacokinetic study on Bioadhesive Composition in Beagle dogs; settings: both, beagle, dog, plasma, po, 1 mg, Tmax (range), Beagle dogs; oral administration 1.0 mg/dog;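 note: eight Beagle dogs (4 male, 4 female), five-period crossover with 3-day washouts, plasma levels quantified by validated LC-MS/MS, oral dosing after roughly 16 h fast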
PROPERTY_NAME: Tmax

> print(dat)
                                   compound  endpoint.result
1  CN1[C@@H]2CCC[C@H]1C[C@@H](NC(=O)c1nn(C)c3ccccc13)C2 [Granisetron, reference compound]     30 to 60 min

###

test: in vivo; settings: both, beagle, dog, plasma, po, 1 mg
PROPERTY_NAME: half-life

> print(dat)
                                   compound  endpoint.result
1  CN1[C@@H]2CCC[C@H]1C[C@@H](NC(=O)c1nn(C)c3ccccc13)C2 [Granisetron, reference compound]             ~1 h
